# SYSTEM_TESTED: Integrin alpha-V/beta-3 (Homo sapiens, UniProt P05106+P06756)
# Sequence (P05106 27-788 limits assumed): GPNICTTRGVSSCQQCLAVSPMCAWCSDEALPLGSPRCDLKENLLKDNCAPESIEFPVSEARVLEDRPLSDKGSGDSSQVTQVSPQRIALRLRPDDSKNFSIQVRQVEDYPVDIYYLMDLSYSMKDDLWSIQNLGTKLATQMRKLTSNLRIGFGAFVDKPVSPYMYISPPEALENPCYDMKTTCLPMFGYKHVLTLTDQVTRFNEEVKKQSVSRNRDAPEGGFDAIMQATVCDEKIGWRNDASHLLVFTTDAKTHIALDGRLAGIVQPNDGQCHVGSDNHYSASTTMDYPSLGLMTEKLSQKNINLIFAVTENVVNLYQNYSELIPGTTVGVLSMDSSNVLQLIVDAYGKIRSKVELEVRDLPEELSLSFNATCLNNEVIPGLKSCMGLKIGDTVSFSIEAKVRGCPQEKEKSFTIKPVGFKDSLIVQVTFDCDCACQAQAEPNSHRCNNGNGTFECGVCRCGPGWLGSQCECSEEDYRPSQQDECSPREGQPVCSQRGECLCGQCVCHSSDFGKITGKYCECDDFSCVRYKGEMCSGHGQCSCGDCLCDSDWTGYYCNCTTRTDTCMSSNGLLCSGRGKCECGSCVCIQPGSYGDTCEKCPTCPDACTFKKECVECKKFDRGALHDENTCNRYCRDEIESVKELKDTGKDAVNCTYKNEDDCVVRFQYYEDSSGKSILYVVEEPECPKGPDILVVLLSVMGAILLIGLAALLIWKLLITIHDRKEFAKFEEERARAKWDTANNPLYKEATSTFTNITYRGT
# Sequence (P06756 31-889 limits assumed): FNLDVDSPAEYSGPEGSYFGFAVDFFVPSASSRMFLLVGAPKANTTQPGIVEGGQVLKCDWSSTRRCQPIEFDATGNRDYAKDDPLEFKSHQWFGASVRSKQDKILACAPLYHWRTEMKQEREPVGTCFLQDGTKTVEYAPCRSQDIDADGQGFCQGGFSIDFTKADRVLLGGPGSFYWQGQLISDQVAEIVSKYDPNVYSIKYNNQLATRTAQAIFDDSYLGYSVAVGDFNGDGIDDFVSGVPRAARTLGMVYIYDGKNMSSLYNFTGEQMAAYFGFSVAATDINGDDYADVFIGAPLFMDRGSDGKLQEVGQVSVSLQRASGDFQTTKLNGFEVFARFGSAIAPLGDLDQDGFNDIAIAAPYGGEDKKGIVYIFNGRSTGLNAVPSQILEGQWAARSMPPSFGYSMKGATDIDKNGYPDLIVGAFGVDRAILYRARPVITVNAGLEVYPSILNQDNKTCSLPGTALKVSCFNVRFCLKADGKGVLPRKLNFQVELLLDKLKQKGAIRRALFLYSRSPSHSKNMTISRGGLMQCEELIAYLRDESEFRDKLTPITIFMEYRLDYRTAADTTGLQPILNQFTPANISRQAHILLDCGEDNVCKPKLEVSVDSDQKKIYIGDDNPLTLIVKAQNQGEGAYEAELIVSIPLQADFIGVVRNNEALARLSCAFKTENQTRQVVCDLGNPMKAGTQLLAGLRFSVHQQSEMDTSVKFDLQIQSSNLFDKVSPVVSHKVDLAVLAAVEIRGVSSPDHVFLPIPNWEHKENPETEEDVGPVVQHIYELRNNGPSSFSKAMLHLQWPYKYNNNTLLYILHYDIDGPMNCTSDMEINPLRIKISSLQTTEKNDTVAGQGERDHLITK
# Sequence (P06756 891-1048 limits assumed): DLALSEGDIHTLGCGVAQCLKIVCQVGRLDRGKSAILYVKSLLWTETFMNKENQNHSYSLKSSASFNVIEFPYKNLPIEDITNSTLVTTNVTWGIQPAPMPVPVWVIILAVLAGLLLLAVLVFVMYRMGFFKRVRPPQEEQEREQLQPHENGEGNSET
# PROCEDURE_TEXT: Inhibition of Vitronectin receptor, integrin alphaV-beta3 expressed in HEK 293 cells
pIC50: −log10 of the molar value.
# maps each entry to its pIC50
QUANTITY_MEASURED: pIC50

# MOLECULE, QUANTITY_MEASURED, QUALIFIER_SYMBOL, MEASUREMENT
rows = [
    ("O=C(NC[C@H](NS(=O)(=O)c1ccccc1)C(=O)O)c1ccc(OCCC2CCNCC2)cc1", "pIC50", "<", 6.00),
    ("O=C(O)C[C@H](NC(=O)CN1CCC(CCc2ccc3c(n2)NCCC3)C1=O)c1cnc2ccccc2c1 (stereo not given in full)", "pIC50", "=", 10.40),
    ("CNc1cccc(CCOc2ccc3c(c2)CN(CC(F)(F)F)C(=O)[C@H](CC(=O)O)C3)n1", "pIC50", "=", 9.82),
    ("O=C(O)C[C@H](NC(=O)CNC(=O)CCCc1ccc2c(n1)NCCC2)c1cccnc1", "pIC50", "=", 8.06),
    ("O=C(O)C[C@H](NC(=O)CN1CCC(CCc2ccc3c(n2)NCCC3)C1=O)c1cccnc1 (stereo not given in full)", "pIC50", "=", 9.46),
]
